Entries and their pEC50
Target Of Assay: P-gp (Homo sapiens, UniProt P08183)
Sequence (P08183 whole entry): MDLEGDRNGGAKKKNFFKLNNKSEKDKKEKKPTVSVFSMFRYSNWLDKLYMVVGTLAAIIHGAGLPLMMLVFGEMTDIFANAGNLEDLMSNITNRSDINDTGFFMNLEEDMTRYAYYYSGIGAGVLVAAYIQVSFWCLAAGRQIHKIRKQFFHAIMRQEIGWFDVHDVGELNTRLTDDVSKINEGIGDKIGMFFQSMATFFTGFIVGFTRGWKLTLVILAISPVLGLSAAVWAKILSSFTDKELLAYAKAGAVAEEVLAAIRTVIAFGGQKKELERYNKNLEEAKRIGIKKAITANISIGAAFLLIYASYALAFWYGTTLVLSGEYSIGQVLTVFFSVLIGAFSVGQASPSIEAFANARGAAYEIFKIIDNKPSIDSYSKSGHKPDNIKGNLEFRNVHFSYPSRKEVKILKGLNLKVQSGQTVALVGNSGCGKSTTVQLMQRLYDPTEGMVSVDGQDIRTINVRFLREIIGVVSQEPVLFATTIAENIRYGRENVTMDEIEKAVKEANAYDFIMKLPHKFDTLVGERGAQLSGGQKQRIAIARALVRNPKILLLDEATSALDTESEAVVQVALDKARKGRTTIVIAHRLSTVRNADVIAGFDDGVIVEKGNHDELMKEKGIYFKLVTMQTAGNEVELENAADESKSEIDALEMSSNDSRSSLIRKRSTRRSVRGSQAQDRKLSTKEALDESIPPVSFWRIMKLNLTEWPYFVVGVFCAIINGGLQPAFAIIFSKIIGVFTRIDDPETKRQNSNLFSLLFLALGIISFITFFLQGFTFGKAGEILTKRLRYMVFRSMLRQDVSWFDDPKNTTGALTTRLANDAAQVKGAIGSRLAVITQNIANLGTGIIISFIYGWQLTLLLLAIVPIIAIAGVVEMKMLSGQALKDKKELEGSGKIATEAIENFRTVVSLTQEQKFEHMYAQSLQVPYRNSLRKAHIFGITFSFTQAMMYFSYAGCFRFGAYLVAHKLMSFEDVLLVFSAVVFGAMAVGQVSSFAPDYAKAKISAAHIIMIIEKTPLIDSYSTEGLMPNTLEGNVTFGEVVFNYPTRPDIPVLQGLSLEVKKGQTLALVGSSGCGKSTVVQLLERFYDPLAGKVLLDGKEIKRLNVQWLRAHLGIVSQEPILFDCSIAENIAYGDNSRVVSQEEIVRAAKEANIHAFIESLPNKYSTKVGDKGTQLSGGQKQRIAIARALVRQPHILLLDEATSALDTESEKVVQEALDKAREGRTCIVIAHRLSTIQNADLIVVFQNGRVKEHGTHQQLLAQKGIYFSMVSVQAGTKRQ
Experiment: EC50 for reversing drug resistance in K562/P-gp cells (cell proliferation assay)
Assay Conditions: EC50 for Reversing MDR, DOX Resistance, K562/P-gp, concentration that reduces IC50 of DOX by half
pEC50: −log10 of the molar value.

[
  {
    "Compound": "COc1cc(OC)c2c(c1)O[C@H](c1ccc(OC)c(OC)c1)[C@@H](OC(=O)c1ccc(F)c(NC(=O)c3cc(OC)c(OC)c(OC)c3)c1)C2 [C25]",
    "pEC50": 7.03
  },
  {
    "Compound": "COc1cc(OC)c2c(c1)O[C@H](c1cc(OC)c(OC)c(OC)c1)[C@@H](OC(=O)c1ccc(F)c(NC(=O)c3cc(OC)c(OC)c(OC)c3)c1)C2 [GC51]",
    "pEC50": 6.89
  },
  {
    "Compound": "COc1cc(OC)c2c(c1)O[C@H](c1ccc(OC)c(OC)c1)[C@H](OC(=O)c1ccc(F)c(NC(=O)c3cc(OC)c(OC)c(OC)c3)c1)C2 [EC31]",
    "pEC50": 7.03
  }
]

---

Experiment: Pharmacokinetics of methylated catechin derivatives in plasma
Format: in vivo, BALB/c mice
Assay Conditions: BALB/c, mouse, ip, 30 mg/kg, read-out: AUC0-infinity (converted)
Property Name: AUC(0-inf) (ng·h/mL)

[
  {
    "Molecule": "COc1cc(OC)c2c(c1)O[C@H](c1ccc(OC)c(OC)c1)[C@@H](OC(=O)c1ccc(F)c(NC(=O)c3cc(OC)c(OC)c(OC)c3)c1)C2",
    "Reported Value": 21600
  },
  {
    "Molecule": "COc1cc(OC)c2c(c1)OC(c1cc(OC)c(OC)c(OC)c1)C(OC(=O)C=Cc1cc(OC)c(OC)c(OC)c1)C2 (stereo not shown)",
    "Reported Value": 7090
  },
  {
    "Molecule": "COc1cc(OC)c2c(c1)O[C@H](c1cc(OC)c(OC)c(OC)c1)[C@@H](OC(=O)c1ccc(F)c(NC(=O)c3cc(OC)c(OC)c(OC)c3)c1)C2",
    "Reported Value": 25700
  },
  {
    "Molecule": "COc1cc(OC)c2c(c1)O[C@H](c1ccc(OC)c(OC)c1)[C@H](OC(=O)c1ccc(F)c(NC(=O)c3cc(OC)c(OC)c(OC)c3)c1)C2",
    "Reported Value": 18400
  }
]

---

Entries and their AUC(0-t)
Experiment: Pharmacokinetics of methylated catechin derivatives in plasma
Type: in vivo, BALB/c mice
Assay Conditions: BALB/c, mouse, iv, 10 mg/kg

[
  {
    "Compound": "COc1cc(OC)c2c(c1)O[C@H](c1cc(OC)c(OC)c(OC)c1)[C@@H](OC(=O)c1ccc(F)c(NC(=O)c3cc(OC)c(OC)c(OC)c3)c1)C2",
    "AUC(0-t)": "13000 ng·h/mL"
  },
  {
    "Compound": "COc1cc(OC)c2c(c1)O[C@H](c1ccc(OC)c(OC)c1)[C@@H](OC(=O)c1ccc(F)c(NC(=O)c3cc(OC)c(OC)c(OC)c3)c1)C2",
    "AUC(0-t)": "8870 ng·h/mL"
  },
  {
    "Compound": "COc1cc(OC)c2c(c1)O[C@H](c1ccc(OC)c(OC)c1)[C@H](OC(=O)c1ccc(F)c(NC(=O)c3cc(OC)c(OC)c(OC)c3)c1)C2",
    "AUC(0-t)": "7240 ng·h/mL"
  },
  {
    "Compound": "COc1cc(OC)c2c(c1)OC(c1cc(OC)c(OC)c(OC)c1)C(OC(=O)C=Cc1cc(OC)c(OC)c(OC)c1)C2 (stereo not shown)",
    "AUC(0-t)": "3190 ng·h/mL"
  }
]
